- System: HS 578T breast
- procedure-summary: NCI tumour cell line growth inhibition, 48 h
Where a SMILES comes first, the peptide text is derived from it. The star is where a group is joined. Cbz = O=C(OCc1ccccc1)*; Boc = CC(C)(C)OC(=O)*; Bn = c1ccc(C*)cc1
TGI values for the compounds below.

Take a look at these entries with their results.
| compound | TGI |
| --- | --- |
| CC(O)(/C=C/c1ccccc1)P(=O)(O)c1ccccc1 (stereo not given) | > 100 µM |
| COc1ccc2oc(=O)cc(C)c2c1 | > 100 µM |
| CCOP1(=O)C=C(Sc2ccc([N+](=O)[O-])cc2[N+](=O)[O-])C(C)(C)O1 (stereo not given) | > 78.8 µM |

Specify TGI for CN1CCN(c2nc(NCCCCNc3ccnc4cc(Cl)ccc34)c3ccccc3n2)CC1 and stop.
26 µM

Quick one: give measured TGI for Cc1ccc(/C=C2/SC(Nc3nc(-c4nc(NC5=NC(=O)/C(=C\c6ccc(C)cc6)S5)sc4C)c(C)s3)=NC2=O)cc1
1.14 µM

Input COc1cc(C(O)c2nc3ccccc3s2)cc(OC)c1OC (stereo not given) , output reported TGI.
> 100 µM

Return the recorded TGI value; entry: NC(=O)NO
> 1220 µM

Answer with the recorded TGI of Cc1ccc2cc3c(ccc4ccccc43)c3c2c1CC3 only.
> 100 µM

Please report TGI for the following compound: C=C(C)C(=O)OC1CC2=CC(CC3(C)OC3C3OC(=O)C(=C)C13)OC2=O (stereo not given)
44.3 µM

Please report TGI for the following compound: CC(C)(C)OC(=O)NC(Cc1ccc(OCc2ccccc2)cc1)C(=O)NC(CCCCNC(=O)OCc1ccccc1)C(=O)O (stereo not given) (Boc-Tyr(Bn)-Lys(Cbz)-OH; configuration not given here)
> 100 µM

----------
- System: HOP-92 NSCLC
- procedure-summary: NCI tumour cell line growth inhibition, 48 h; in the data active means GI50 below about 0.43 µM; inactive means the rest
Respond only with the outcome that fits, drawn from t = active, f = inactive

Here are 6 compounds together with their reported answers.
| compound | discrete-label |
| --- | --- |
| COc1ccc(-c2cnnn2-c2cc(OC)c3c(c2)OCO3)cc1 | t |
| CC(C)C[C@H](NC(=O)[C@H]1O[C@@H]1C(=O)O)C(=O)NCCc1ccc(O)cc1 | f |
| COc1ccc(-c2nnc(SCC(=O)Nc3ccc(/C(C)=N\O)cc3)n2-c2ccccc2)cc1OC | f |
| CCN(CCNc1ccc(C)c2sc3cc(Cl)ccc3c(=O)c12)CC(C)O (stereo not given) | f |
| O=C1C=C[C@@]23C[C@@H](Nc4c(O)c5c6c(c42)=NCCC=6C=N5)SC3=C1 | f |
| C=CCNCCCN1C(=O)c2ccc3c4c(ccc(c24)C1=O)C(=O)N(CCCNCC=C)C3=O | f |

Which outcome did this test record for the compound CCCCCCC#Cc1ccccc1C#CCO ?
f

Each compound tested received a call. Report the one for COc1ccc(C(=O)/C=C/c2c(C(F)(F)F)nc3sccn23)cc1OC .
f

Recorded test call requested for Cn1c(=O)c(Oc2ccc(F)cc2F)cc2cnc(NC(CO)CO)nc21
f

Just curious, what result did Cn1ccc2c(c1=O)C(=O)c1nccc3c1c-2nc1ccccc13 get here?
f

----------
- Test system: HS 578T breast
- procedure-summary: NCI tumour cell line growth inhibition, 48 h
observable: TGI (µM)
Reply numerically in µM, unit not repeated.

Solved entries:
| compound | observable | value |
| --- | --- | --- |
| O=c1[nH]/c(=C/c2ccc(OCc3ccccc3)cn2)c(=O)[nH]/c1=C/c1ccc(Cl)cc1 | TGI | 2.68 |
| Cn1ccnc1C(=O)/C=C/c1ccc(CC(=O)Nc2ccc(S(F)(F)(F)(F)F)cc2)cc1 | TGI | 16.4 |
| CC(CN1CCN(C)CC1)CN1c2ccccc2Sc2ccc(C(F)(F)F)cc21 (centres undefined) | TGI | 5.8 |
| COc1cc(-c2c(C#N)c(N)c(C#N)c3c2COc2ccccc2-3)cc(OC)c1OC | TGI | 39.7 |

Let us move to another entry and its TGI.
Identify measured TGI associated with NC(=O)c1oc([N+](=O)[O-])c(-c2ccccc2)c1-c1ccccc1
28.2

Source listed as PubChem BioAssay (NCI).
